Test system: Aspergillus flavus
Assay: Antifungal activity against Aspergillus flavus ATCC 9170
Assay type: functional
MEASURED_PROPERTY: MFC (µg/mL)
Give bare numbers, in µg/mL.

Answered examples (3):
COc1ccc(N2C(=O)C=CC2=O)cc1OC ... 125
O=C1C=CC(=O)N1c1ccc(F)cc1F ... 62.5
CC1=CC(=O)N(Cc2ccccc2)C1=O ... 125

Value of MFC reported for the compound COc1ccc(N2C(=O)C=CC2=O)cc1 is 125

---

System: Aspergillus flavus
Assay: Antifungal activity against Aspergillus flavus ATCC 9170
Type: functional
I'd be grateful if you could share measured MFC for these entries.

O=C1CCC(=O)N1CCc1ccccc1 ... > 250 µg/mL
CC1=CC(=O)N(CCc2ccccc2)C1O (stereo not drawn) ... > 250 µg/mL

Consider now this further compound.
Form field MFC for item O=C1C=CC(O)N1CCc1ccccc1 (stereo not drawn) on Aspergillus flavus: > 250 µg/mL
